# hERG current change (%, negative = inhibition) at 10uM values compiled below
Study target: human ether-à-go-go-related gene (hERG) potassium channel (human);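 also: peak tail current of the secondary pulse compared with the same well before compound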
Sequence (Q12809 whole entry, looked up): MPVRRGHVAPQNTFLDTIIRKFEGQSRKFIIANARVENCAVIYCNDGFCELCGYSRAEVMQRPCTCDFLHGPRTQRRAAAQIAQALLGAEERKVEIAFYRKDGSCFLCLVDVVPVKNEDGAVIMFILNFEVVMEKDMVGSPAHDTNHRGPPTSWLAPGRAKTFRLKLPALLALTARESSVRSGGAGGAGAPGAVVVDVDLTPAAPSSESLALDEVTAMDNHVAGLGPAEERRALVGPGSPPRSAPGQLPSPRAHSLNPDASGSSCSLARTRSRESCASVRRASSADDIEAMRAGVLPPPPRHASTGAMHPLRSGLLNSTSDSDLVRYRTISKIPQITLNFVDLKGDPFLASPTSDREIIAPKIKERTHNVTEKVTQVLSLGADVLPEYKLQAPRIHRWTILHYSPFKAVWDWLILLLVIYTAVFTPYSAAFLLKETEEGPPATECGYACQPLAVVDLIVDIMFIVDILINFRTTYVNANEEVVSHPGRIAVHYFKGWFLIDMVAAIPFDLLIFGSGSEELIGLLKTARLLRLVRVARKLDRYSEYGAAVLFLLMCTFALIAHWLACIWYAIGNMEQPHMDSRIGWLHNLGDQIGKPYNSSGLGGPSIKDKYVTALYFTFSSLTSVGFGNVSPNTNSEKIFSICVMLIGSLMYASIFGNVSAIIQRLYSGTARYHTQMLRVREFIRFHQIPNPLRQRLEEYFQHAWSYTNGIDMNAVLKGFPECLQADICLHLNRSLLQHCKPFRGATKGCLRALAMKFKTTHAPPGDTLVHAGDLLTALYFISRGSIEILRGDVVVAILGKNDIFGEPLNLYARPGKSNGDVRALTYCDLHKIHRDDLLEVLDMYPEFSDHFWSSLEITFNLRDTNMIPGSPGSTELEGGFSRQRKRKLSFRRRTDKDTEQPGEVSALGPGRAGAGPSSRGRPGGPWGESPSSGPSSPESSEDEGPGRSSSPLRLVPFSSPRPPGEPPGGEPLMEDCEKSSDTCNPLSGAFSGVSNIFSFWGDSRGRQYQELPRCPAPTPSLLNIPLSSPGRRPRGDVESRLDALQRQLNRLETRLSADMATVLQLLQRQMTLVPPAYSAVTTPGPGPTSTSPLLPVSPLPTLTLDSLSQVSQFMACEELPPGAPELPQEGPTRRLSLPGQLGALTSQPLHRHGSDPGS
Test summary: primary screen, population patch clamp on CHO cells stably expressing hERG; higher = less effect of the substance
Protocol: Briefly, Chinese hamster ovary (CHO) cells stably expressing the hERG channel were dislodged from tissue culture flasks and dispensed into PPC plates. […] During the recording, background leak currents were estimated by a 100 ms step to -80 mV from an initial holding potential of -70 mV and subtracted from the subsequent current measurement. The campaign was conducted in two phases using slight differences in recording protocol. […]
The campaign covered roughly 310,000 compounds. About 14,000 (4.5%) showed an effect of 50% or more. Effects have a minus sign here. The sample as a whole holds a higher share of strong results than the screen did.
Kindly provide the numeric value in % only, without the unit symbol.

Compound	Assay value
Cc1cc(C)nc(N/N=C/c2ccc([N+](=O)[O-])o2)n1	2.14
O=C(CN1CCCC1)Nc1c(C(=O)C2CC2)oc2ccccc12	-9.92
CN1CCN(CC(=O)Nc2c(C(=O)c3ccccc3)oc3ccccc23)CC1	-78.9
COc1cc(/C=C2\SC(N3CCC(C)CC3)=NC2=O)ccc1O	-5.99
C#CCOCCOCCOCCNc1nc(N2CCN(C(=O)[C@H](CCC(=O)O)n3cc(C(N)CO)nn3)CC2)nc(N2CCN(C(=O)[C@H](Cc3ccc(O)cc3)n3cc(C(N)[C@H](C)CC)nn3)CC2)n1.Cl (stereo partly shown)	9.89

Recorded hERG current change (%, negative = inhibition) at 10uM of CCC(C)CCN1CCN=C1Nc1ccccc1 (stereo not shown) , please.
-1.89

Request the reported hERG current change (%, negative = inhibition) at 10uM associated with Cc1ccc(CSCCNC(=O)CN(c2cccc([N+](=O)[O-])c2)S(C)(=O)=O)cc1
-53.2

Any idea what its hERG current change (%, negative = inhibition) at 10uM is? The compound is Cc1ccc(CSCC(=O)NCCc2ccccc2)cc1
-3.13

# lookup: hERG current change (%, negative = inhibition) at 10uM of O=c1[nH]c2cc3c(cc2cc1C(c1nnnn1Cc1ccccc1)N1CCN2CCCC2C1)OCCO3 (stereo not shown)
-0.778

Please give the measured hERG current change (%, negative = inhibition) at 10uM for this compound: N#Cc1ccccc1/C=N/Nc1nc(-c2ccccc2)c2cc(Cl)ccc2n1
-46.3

Recorded hERG current change (%, negative = inhibition) at 10uM of CCNc1nc(NCC)nc(N/N=C/c2ccc([N+](=O)[O-])o2)n1 , please.
-50.8

Give its hERG current change (%, negative = inhibition) at 10uM value. Item: Cc1ccc(C(=O)c2oc3ccc(Cl)cc3c2NC(=O)CN2CCN(C)CC2)cc1
-74.3

Can you look up the measured hERG current change (%, negative = inhibition) at 10uM of CC(CCN1C(Nc2ccccc2)=NC[C@@H]1C)c1ccccc1 (stereo partly shown) for me?
-52.4

Origin of measurements: paper PMC4336329
